Entries annotated with measured IC50
- system name: T1, recombinant human CEACAM-1 (R&D Systems cat. no. 2244-CM-050) (human, UniProt P13688 35-428)
- T1 construct: Coated on the ELISA plate at 0.5 ug/ml
- T1 sequence (looked up): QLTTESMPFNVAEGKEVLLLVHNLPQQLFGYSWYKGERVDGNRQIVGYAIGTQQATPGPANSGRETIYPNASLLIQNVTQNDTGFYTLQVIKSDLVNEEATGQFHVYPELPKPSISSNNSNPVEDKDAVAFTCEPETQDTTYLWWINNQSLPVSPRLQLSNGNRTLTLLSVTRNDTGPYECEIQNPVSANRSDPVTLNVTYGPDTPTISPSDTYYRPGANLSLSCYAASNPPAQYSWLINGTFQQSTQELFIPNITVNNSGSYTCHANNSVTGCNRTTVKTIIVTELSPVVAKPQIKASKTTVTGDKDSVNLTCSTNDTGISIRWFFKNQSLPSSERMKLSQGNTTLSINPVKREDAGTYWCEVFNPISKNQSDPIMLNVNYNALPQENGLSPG
- experimental protocol: competition ELISA on coated recombinant human CEACAM-1; competitor biotinylated chimeric CM-10 IgG1
Field format: number, assumed mg/L, no unit text.

Reference set (3 entries):
1) humanized anti-CEACAM-1 variant VH3/VK2, IgG4 (S241P) (antibody, V domains shown, Tested as human IgG4 (S241P) / kappa antibody; only the variable regions are tied to this variant) VH: QVQLVQSGAEVKKPGASVKVSCKASGYAFTNNLIEWVRQAPGQGLEWIGVINPGSGDTNYNEKFKGRATLTADKSINTAYMELSRLRSDDTAVYYCARGDYYGGFAVDYWGQGTTVTVSS VL: DIQMTQSPSSLSASVGDRVTITCRTSQDIGNYLNWYQQKPGKAVKLLIYYTSRLHSGVPSRFSGSGSGTDYTLTISSLQPEDIATYFCQQGKSLPRTFGGGTKVEIK	0.77
2) humanized anti-CEACAM-1 variant VH2/VK2, IgG4 (S241P) (antibody, V domains shown, Tested as human IgG4 (S241P) / kappa antibody; only the variable regions are tied to this variant) VH: QVQLVQSGAEVKKPGASVKVSCKASGYAFTNNLIEWVKQAPGQGLEWIGVINPGSGDTNYNEKFKGRATLTADKSINTAYMELSRLRSDDTAVYFCARGDYYGGFAVDYWGQGTTVTVSS VL: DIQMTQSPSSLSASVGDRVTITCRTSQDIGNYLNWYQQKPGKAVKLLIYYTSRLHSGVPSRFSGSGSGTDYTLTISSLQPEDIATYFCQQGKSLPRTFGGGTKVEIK	0.76
3) humanized anti-CEACAM-1 variant VH2/VK1, IgG4 (S241P) (antibody, V domains shown, Tested as human IgG4 (S241P) / kappa antibody; only the variable regions are tied to this variant) VH: QVQLVQSGAEVKKPGASVKVSCKASGYAFTNNLIEWVKQAPGQGLEWIGVINPGSGDTNYNEKFKGRATLTADKSINTAYMELSRLRSDDTAVYFCARGDYYGGFAVDYWGQGTTVTVSS VL: DIQMTQSPSSLSASVGDRVTITCRTSQDIGNYLNWYQQKPGKAVKLLIYYTSRLHSGVPSRFSGSGSGTDYTLTISSLQQEDIATYFCQQGKSLPRTFGGGTKVEIK	0.43

// returns reported IC50 for input humanized anti-CEACAM-1 variant VH4/VK2, IgG1 (antibody, V domains shown, Tested as human IgG1 / kappa antibody; only the variable regions are tied to this variant) VH: QVQLVQSGAEVKKPGASVKVSCKASGYAFTNNLIEWVRQAPGQGLEWIGVINPGSGDTNYNEKFKGRATLTADKSISTAYMELSRLRSDDTAVYYCARGDYYGGFAVDYWGQGTTVTVSS VL: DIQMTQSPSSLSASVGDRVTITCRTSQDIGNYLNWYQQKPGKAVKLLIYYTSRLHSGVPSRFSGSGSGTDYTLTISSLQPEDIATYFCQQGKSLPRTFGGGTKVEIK
0.78

Consider next the binder humanized anti-CEACAM-1 variant VH1/VK3, IgG1 (antibody, V domains shown, Tested as human IgG1 / kappa antibody; only the variable regions are tied to this variant) VH: QVQLVQSGAELKKPGASVKVSCKASGYAFTNNLIEWVKQAPGQGLEWIGVINPGSGDTNYNEKFKGRATLTADKSINTAYMELSSLTSDDSAVYFCARGDYYGGFAVDYWGQGTSVTVSS VL: DIQMTQSPSSLSASVGDRVTITCRTSQDIGNYLNWYQQKPGKAVKLLIYYTSRLHSGVPSRFSGSGSGTDYTFTISSLQPEDIATYFCQQGKSLPRTFGGGTKVEIK in the same way.
0.77
